- ASSAYED TARGET: T1, human GIP receptor (human, UniProt P48546 22-466)
- T1 sequence (looked up): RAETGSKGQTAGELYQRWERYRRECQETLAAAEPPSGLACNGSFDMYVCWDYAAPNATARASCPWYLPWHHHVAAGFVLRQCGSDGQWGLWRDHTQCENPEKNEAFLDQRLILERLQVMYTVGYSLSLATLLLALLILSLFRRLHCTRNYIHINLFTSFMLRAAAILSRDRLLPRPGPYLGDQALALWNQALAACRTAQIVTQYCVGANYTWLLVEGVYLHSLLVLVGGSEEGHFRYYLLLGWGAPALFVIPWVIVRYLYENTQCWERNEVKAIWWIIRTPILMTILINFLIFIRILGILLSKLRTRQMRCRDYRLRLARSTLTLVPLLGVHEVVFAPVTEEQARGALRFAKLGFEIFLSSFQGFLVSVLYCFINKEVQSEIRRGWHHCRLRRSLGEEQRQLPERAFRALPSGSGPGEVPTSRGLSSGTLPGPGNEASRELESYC
- ASSAY PROTOCOL: cell-based or functional assay
*1 amine or outer side, *2 acyl side, *3 side chain or, on linkers, in order; H or OH if unused. Where no end group is shown, it is not given here. Side-chain parts run from the residue outwards. [ ]: non-standard residue; d: D form. The star is where a group is joined. C20 diacid = O=C(O)CCCCCCCCCCCCCCCCCCC(=O)*; C18 diacid = O=C(O)CCCCCCCCCCCCCCCCC(=O)*; γGlu = O=C(O)[C@H](CCC(=O)[*:2])N[*:1]; Trx = NC[C@H]1CC[C@H](C(=O)O)CC1; Nle = CCCC[C@H](N)C(=O)O; AEEA = NCCOCCOCC(=O)O; Aib = CC(C)(N)C(=O)O
Doc: threshold 0.02 nM (exclusive). Items with EC50, hGIP-R CRE Luc, 0.2% HSA beneath it return condition met; others return condition not met.

Answered examples (5):
{"BINDER": "Ac-[dY]AEGTFISDYSIA[Nle]DKIHQQDFVK([γGlu-γGlu-γGlu-Trx-C20 diacid])WLLAQKP-NH2", "CATEGORY LABEL": "condition not met"}
{"BINDER": "Ac-[dY]AEGTFISDYSIA[Nle]DKIRQQDFVK([AEEA-AEEA-γGlu-C18 diacid])WLLAQKG", "CATEGORY LABEL": "condition not met"}
{"BINDER": "Y[Aib]EGTFISDYSIA[Nle]DKIRQQDFVK([γGlu-γGlu-γGlu-C18 diacid])WLLAQKGKEEDWKHNITQ", "CATEGORY LABEL": "condition met"}
{"BINDER": "Ac-[dY][Aib]EGTFISDYSIA[Nle]DKIHQQDFVK([γGlu-γGlu-γGlu-Trx-C20 diacid])WLLAQKP-NH2", "CATEGORY LABEL": "condition not met"}
{"BINDER": "Y[Aib]EGTFISDYSIA[Nle]DKIRQQDFVK([AEEA-AEEA-γGlu-Trx-C20 diacid])WLLAQKG", "CATEGORY LABEL": "condition not met"}

Does the reported EC50, hGIP-R CRE Luc, 0.2% HSA of the following binder sit strictly below 0.02 nM? Y[Aib]EGTFISDYSIA[Nle]DKIRQQDFVK([γGlu-γGlu-γGlu-Trx-C20 diacid])WLLAQKP-NH2
condition not met

Does the reported EC50, hGIP-R CRE Luc, 0.2% HSA of the following binder sit strictly below 0.02 nM? Y[Aib]EGTFISDYSIA[Nle]DKIHQQDFVK([AEEA-AEEA-γGlu-C18 diacid])WLLAQKGKEDDWKHNITQ
condition met

Does the reported EC50, hGIP-R CRE Luc, 0.2% HSA of the following binder sit strictly below 0.02 nM? Ac-YAEGTFISDYSIA[Nle]DKIRQQDFVK([γGlu-γGlu-γGlu-C18 diacid])WLLAQKG
condition not met

Does the reported EC50, hGIP-R CRE Luc, 0.2% HSA of the following binder sit strictly below 0.02 nM? Y[Aib]EGTFISDYSIA[Nle]DKIRQQDFVK([AEEA-AEEA-γGlu-C18 diacid])WLLAQKGKEEDWKHNITQ
condition met
